Assay: chemical genetic growth profiling, strain panel (AID 1159580);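 note: tested at 20 µM; growth read once vehicle control cultures reached saturation at 30 °C; 1 = growth at the plate median or of vehicle wells; lower values mean less growth of the strain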
Conditions: S. cerevisiae deletion strains, growth OD, locus YJL168C, strain set2
The whole screen tested about 5,500 compounds, of which about 2,000 (36%) were called active. Roughly 18% stayed inconclusive and do not appear here. Cut-off read from the data, not from the text of the source: active = normalized growth mostly below about 0.91 (no sharp cut-off); inconclusive = no clear call, values can overlap the other calls; inactive = mostly above about 0.92. Some of the results follow.
Tick one outcome: active, inactive

A selection of reference data follows.
- compound: "C=C[C@@](C)(O)CCC1C(=C)CCC2[C@@](C)(CO)CCC[C@]12C (stereo not given in full)"
  cat: "inactive"
- compound: "CC(C)NCC(O)COc1cccc2[nH]ccc12 (stereo not given)"
  cat: "inactive"
- compound: "CNC(=O)O/N=C(\\C)SC"
  cat: "inactive"
- compound: "NC(=O)c1ccc[n+]([C@@H]2O[C@H](COP(=O)([O-])OP(=O)(O)OC[C@H]3O[C@@H](n4cnc5c(N)ncnc54)[C@H](OP(=O)(O)O)[C@@H]3O)[C@@H](O)[C@H]2O)c1"
  cat: "inactive"
- compound: "CC[C@@]1(O)C[C@H](O[C@H]2C[C@H](N(C)C)[C@H](O)[C@H](C)O2)c2c(cc3c(c2O)C(=O)c2c(O)cccc2C3=O)[C@H]1C(=O)OC"
  cat: "active"

Tell me the assay call for OCC(O)CN1CCN(c2ccccc2)CC1 (stereo not given) please.
inactive

For CCN(CC)C(=O)N1CCN(C)CC1 then?
inactive

Please do the same for C/C=C(\C)C(=O)O[C@H]1C[C@@H](OC(C)=O)[C@@]2(C(=O)OC)CO[C@@H]3C2[C@]12CO[C@](O)(C(=O)OC)[C@H]2[C@](C)(C12O[C@@]1(C)[C@H]1C[C@@H]2OC2OC=C[C@@]21O)[C@@H]3O (stereo not given in full) as well.
inactive

Item: Cn1c(=O)c2c(ncn2CC(O)CO)n(C)c1=O (stereo not given)
inactive

What do you have for C=C[C@@](C)(O)CCC1C(=C)C[C@H](O)C2C(C)(C)CCCC12C (stereo not given in full) ?
inactive

Next up: CCC1(O)CC(OC2CC(N(C)C)C(OC3CC(O)C(OC4CCC(=O)C(C)O4)C(C)O3)C(C)O2)c2c(cc3c(c2O)C(=O)c2c(O)cccc2C3=O)C1C(=O)OC (stereo not given)
inactive

What about this compound? c1ccc2c(c1)sc1ccccc12
inactive

Next record, please: COc1cc(CNC(=O)CCCC/C=C/C(C)C)ccc1O
inactive

How about N[C@@H](Cc1ccc(N(CCCl)CCCl)cc1)C(=O)O ?
inactive

---

Provide the reported normalized growth of each item.
Assay: chemical genetic growth profiling, strain panel (AID 1159580);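 note: tested at 20 µM; growth read once vehicle control cultures reached saturation at 30 °C; 1 = growth at the plate median or of vehicle wells; lower values mean less growth of the strain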
Details: S. cerevisiae deletion strains, growth OD, locus YGR229C, strain SMI1, active compounds read low
In all, about 5,500 compounds went through this assay and about 2,000 (36%) were called active. About 18% were inconclusive and are not listed. This is one part of the list.
Numbers only.

Please review the following examples before continuing.
- compound: "CCCCCCN(CCCCCC)C(=O)Cc1c(-c2ccc(F)cc2)[nH]c2ccccc12"
  normalized growth: 1.04
- compound: "C/C=C(\\C)C(=O)O[C@H]1C[C@@H](OC(C)=O)[C@@]2(C(=O)OC)CO[C@@H]3C2[C@]12CO[C@](O)(C(=O)OC)[C@H]2[C@](C)(C12O[C@@]1(C)[C@H]1C[C@@H]2OC2OC=C[C@@]21O)[C@@H]3O (some centres undefined)"
  normalized growth: 1.01
- compound: "Cc1[nH]c2ccccc2c1CN(C)C"
  normalized growth: 1.06
- compound: "CN1CC(CO)=C[C@@H]2c3cccc4[nH]cc(c34)C[C@H]21"
  normalized growth: 0.992
- compound: "CCCCCCCC/C=C\\CCCCCCCC(=O)NCCc1ccc(O)c(O)c1"
  normalized growth: 0.811
- compound: "CCCCCCCCCCCCCCCCCC(=O)NCC(COP(=O)([O-])OCC[N+](C)(C)C)OCC (centres undefined)"
  normalized growth: 0.0622

Quick batch: normalized growth for everything below.
1. CCCCCCCCC(=O)NCc1ccc(O)c(OC)c1
2. C[C@]12CCC(=O)C=C1C=CC1C2CC[C@@]2(C)C1CC[C@@]2(O)CCC(=O)O (some centres undefined)

[1, 1.03]

Need normalized growth, item c1ccc2c(c1)sc1ccccc12
0.917
